Biological target: pooled human IgG (human IgG1, 2, 3 and 4)
Attribute: Enzyme Activity Endpoint Assay (purified): Fab′2
Enter your answer as a number in ng/µL; do not include the unit.

{"Protein": "PRT-625 (protein) MQITSVWTKGVTPLTPEQFRYNNEDVIHAPYLAHQGWYDITKAFDGKDNLLCGAATAGNMLHWWFDQNKTEIEAYLSKHPEKQKIIFNNQELFDLKAAIDTKDSQTNSQLFNYFRDKAFPNLSARQLGVMPDLVLDMFINGYYLNVFKTQSTDVNRPEDDKDKRGGIFDHVFTRGDQSTLLTARHDLKNKGLNDISTIIKQELTEGRALALSHTYANVSISHVINLWGADFNAEGNLEAIYVTDSDANASIGMKKYFVGINAHGHVAISAKKIEGENIGAQVLGLFTLSSGKDIWQKLSLEHHHHHH", "Measurement units": "ng/µL", "Observed measurement": 451}

Attention now shifts to the item below.
Qu. GET /values?readout=Enzyme Activity Endpoint Assay (purified): Fab′2&item= PRT-633 (protein) MQITSVWTKGVTPLTPEQFTNNNEDVIHAPYKANQGWYDITKAFDGKDNLLCGAATAGNMLHWWFDQNKTEIEAYLSKHPEKQKIIFNNQELFDLKAAIDTKDSQTNSQLFNYFRDKAFPNLSARQLGVMPDLVLDMFINGYYLNVFKTQSTDVNRPYQDKDKRGGIFDAVFTRGDQTTLLTARHDLKNKGLNDISTIIKQELTEGKALALSHTYANVSISHVINLWGADFNAEGNLEAIYVTDSDANASIGMKKYFVGINAHGHVAISAKKIEGENIGAQVLGLFTLSSGKDIWQKLSLEHHHHHH
Ans. 749
